# log10(IC50) annotations
Target: Phosphatidylinositol 4,5-bisphosphate 3-kinase catalytic subunit beta isoform (Homo sapiens)
Sequence (P42338 whole entry, canonical isoform): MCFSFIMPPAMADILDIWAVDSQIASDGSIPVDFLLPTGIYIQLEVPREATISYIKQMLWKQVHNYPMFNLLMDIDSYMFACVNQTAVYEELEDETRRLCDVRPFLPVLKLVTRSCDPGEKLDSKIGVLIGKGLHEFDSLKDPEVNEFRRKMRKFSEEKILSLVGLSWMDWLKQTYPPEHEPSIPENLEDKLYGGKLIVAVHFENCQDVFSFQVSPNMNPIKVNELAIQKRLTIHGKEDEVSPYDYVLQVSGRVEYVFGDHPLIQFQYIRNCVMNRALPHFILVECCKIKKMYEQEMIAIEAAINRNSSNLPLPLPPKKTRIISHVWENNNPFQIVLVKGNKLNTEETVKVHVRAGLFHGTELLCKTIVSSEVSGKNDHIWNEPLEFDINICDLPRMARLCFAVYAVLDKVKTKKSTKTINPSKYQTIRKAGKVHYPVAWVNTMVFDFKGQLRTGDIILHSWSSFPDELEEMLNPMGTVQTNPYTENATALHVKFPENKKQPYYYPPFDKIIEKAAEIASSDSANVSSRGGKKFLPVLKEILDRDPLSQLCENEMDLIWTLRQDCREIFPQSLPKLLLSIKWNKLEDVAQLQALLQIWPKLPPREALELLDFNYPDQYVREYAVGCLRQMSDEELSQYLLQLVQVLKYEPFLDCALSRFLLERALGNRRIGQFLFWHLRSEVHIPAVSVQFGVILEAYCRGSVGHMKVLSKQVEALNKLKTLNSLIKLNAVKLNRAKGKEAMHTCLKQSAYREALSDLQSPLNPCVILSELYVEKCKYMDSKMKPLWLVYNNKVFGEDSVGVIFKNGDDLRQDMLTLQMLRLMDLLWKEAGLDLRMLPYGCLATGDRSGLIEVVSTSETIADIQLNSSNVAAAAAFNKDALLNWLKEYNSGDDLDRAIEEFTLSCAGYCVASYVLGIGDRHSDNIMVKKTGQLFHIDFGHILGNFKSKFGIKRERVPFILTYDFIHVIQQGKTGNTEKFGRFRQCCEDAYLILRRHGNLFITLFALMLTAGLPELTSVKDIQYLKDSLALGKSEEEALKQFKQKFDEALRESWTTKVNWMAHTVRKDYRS
quantity-kind: log10(IC50) (log10 of the value in nM)

INSERT INTO assay_data (compound, recorded_measurement) VALUES
  ('Cc1ccc(S(=O)(=O)Nc2nc3ccccc3nc2Nc2ccc3nsnc3c2)cc1', 2.58),
  ('Cc1cc(NCc2ccccc2C)c2nc(N3CCOCC3)cc(=O)n2c1', 2.04),
  ('N=C(N)NCCCC(NC(=O)CCC(=O)OC[N+]1(c2cc(=O)c3cccc(-c4ccccc4)c3o2)CCOCC1)C(=O)NCC(=O)NC(CC(=O)O)C(=O)NC(CO)C(=O)[O-] (stereo not given)', 2.87),
  ('O=Cc1ccc(N2CCOCC2)cc1O', 3.45),
  ('Cc1cc(Oc2ccccc2C)c2[nH]c(N3CCOCC3)cc(=O)c2c1', 2.11);

====

Target: Phosphatidylinositol 4,5-bisphosphate 3-kinase catalytic subunit beta isoform (Homo sapiens)
Format: cell-based
quantity-kind: IC50 (µM)

INSERT INTO results (molecule, quantity_kind, recorded_measurement) VALUES
  ('Oc1ccc(/C=C/c2cc(O)cc(O)c2)cc1 [RESVERATROL]', 'IC50', 0.5);

====

Target: Phosphatidylinositol 4,5-bisphosphate 3-kinase catalytic subunit gamma isoform (Homo sapiens)
Sequence (P48736 whole entry, canonical isoform): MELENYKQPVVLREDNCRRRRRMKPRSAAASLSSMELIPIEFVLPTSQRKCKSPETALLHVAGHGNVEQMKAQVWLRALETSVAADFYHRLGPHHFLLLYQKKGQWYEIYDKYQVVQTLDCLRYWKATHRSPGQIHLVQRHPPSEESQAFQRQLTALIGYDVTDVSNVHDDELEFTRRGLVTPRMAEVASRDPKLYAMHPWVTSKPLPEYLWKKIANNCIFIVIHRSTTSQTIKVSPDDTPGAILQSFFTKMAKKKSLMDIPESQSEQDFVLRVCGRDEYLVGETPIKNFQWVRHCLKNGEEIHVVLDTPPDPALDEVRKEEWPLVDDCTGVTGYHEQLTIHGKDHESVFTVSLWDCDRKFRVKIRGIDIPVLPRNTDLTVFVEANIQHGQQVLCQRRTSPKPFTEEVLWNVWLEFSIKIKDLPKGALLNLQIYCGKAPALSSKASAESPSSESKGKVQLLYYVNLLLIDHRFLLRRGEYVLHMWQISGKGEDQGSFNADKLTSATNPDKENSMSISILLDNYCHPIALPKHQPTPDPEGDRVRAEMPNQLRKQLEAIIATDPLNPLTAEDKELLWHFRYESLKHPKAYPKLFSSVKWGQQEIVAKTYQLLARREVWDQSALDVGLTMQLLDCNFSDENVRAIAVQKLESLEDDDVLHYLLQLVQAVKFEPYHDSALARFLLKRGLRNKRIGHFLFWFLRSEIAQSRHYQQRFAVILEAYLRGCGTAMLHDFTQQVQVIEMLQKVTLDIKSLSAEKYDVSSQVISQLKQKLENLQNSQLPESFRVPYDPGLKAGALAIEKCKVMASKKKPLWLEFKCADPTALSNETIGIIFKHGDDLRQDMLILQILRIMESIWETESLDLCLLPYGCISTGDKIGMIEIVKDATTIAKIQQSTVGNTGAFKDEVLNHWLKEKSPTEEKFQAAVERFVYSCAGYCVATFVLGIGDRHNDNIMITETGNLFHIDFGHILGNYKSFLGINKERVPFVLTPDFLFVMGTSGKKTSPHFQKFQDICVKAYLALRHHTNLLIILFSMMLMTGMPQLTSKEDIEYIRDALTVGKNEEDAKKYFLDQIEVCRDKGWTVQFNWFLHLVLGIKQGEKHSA
pIC50: −log10 of the molar value.
quantity-kind: pIC50

INSERT INTO results (smiles_representation, quantity_kind, recorded_measurement) VALUES
  ('CN1CCOc2cc(/C=C3\SC(=O)NC3=O)ccc21', 'pIC50', '< 5.00');

====

Test: cells
Type: cell-based
Conditions: Homo sapiens
pIC50: −log10 of the molar value.
quantity-kind: pIC50

INSERT INTO assay_data (smiles_representation, recorded_measurement) VALUES
  ('COc1c(OCCCN2CCOCC2)ccc2c1N=C(NC(=O)c1cnc(N)nc1)N1CCN=C21', '> 9.00');

====

Biological target: Serine/threonine-protein kinase mTOR (Homo sapiens)
quantity-kind: IC50 (nM)

INSERT INTO results (compound, recorded_measurement) VALUES
  ('N=C(N)NCCCC(NC(=O)CCC(=O)OC[N+]1(c2cc(=O)c3cccc(-c4ccccc4)c3o2)CCOCC1)C(=O)NCC(=O)NC(CC(=O)O)C(=O)NC(CO)C(=O)[O-] (stereo unspecified)', 1060);

====

Target: Phosphatidylinositol 4,5-bisphosphate 3-kinase catalytic subunit delta isoform (Homo sapiens)
Sequence (O00329 whole entry, canonical isoform): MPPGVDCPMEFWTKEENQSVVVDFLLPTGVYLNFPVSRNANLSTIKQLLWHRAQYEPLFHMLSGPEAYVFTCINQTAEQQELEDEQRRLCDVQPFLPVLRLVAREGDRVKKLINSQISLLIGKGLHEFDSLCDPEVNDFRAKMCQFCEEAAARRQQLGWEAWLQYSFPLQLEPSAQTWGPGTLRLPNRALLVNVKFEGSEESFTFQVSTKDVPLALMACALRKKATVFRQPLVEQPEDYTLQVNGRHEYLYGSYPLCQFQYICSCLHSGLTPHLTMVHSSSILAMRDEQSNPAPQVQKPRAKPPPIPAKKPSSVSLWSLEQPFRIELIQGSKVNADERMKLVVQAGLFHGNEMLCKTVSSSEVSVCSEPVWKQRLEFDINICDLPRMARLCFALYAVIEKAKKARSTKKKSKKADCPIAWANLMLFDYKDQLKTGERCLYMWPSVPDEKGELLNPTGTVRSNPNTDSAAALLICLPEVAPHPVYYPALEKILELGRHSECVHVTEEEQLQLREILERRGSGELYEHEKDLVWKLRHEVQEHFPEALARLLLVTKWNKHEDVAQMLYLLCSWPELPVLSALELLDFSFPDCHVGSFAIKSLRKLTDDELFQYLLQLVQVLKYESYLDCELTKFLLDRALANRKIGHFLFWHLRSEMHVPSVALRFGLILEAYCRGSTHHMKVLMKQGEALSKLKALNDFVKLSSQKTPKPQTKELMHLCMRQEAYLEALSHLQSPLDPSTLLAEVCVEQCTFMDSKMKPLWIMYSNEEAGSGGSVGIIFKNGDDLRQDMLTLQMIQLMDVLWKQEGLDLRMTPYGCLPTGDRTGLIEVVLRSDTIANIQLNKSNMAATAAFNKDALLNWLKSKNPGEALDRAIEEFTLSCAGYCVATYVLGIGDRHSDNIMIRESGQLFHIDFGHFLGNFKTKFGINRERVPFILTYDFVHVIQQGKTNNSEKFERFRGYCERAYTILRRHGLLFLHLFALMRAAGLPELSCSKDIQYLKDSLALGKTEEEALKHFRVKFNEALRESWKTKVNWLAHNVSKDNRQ
pIC50: −log10 of the molar value.
quantity-kind: pIC50

INSERT INTO assay_data (compound, recorded_measurement) VALUES
  ('N=C(N)NCCCC(NC(=O)CCC(=O)OC[N+]1(c2cc(=O)c3cccc(-c4ccccc4)c3o2)CCOCC1)C(=O)NCC(=O)NC(CC(=O)O)C(=O)NC(CO)C(=O)[O-] (stereo unspecified)', 5.49);
